Biological target: human TLR7 (Homo sapiens)
Construct: host or cells: HEK blue hTLR7 reporter cells
Sequence (Q9NYK1 27-1049): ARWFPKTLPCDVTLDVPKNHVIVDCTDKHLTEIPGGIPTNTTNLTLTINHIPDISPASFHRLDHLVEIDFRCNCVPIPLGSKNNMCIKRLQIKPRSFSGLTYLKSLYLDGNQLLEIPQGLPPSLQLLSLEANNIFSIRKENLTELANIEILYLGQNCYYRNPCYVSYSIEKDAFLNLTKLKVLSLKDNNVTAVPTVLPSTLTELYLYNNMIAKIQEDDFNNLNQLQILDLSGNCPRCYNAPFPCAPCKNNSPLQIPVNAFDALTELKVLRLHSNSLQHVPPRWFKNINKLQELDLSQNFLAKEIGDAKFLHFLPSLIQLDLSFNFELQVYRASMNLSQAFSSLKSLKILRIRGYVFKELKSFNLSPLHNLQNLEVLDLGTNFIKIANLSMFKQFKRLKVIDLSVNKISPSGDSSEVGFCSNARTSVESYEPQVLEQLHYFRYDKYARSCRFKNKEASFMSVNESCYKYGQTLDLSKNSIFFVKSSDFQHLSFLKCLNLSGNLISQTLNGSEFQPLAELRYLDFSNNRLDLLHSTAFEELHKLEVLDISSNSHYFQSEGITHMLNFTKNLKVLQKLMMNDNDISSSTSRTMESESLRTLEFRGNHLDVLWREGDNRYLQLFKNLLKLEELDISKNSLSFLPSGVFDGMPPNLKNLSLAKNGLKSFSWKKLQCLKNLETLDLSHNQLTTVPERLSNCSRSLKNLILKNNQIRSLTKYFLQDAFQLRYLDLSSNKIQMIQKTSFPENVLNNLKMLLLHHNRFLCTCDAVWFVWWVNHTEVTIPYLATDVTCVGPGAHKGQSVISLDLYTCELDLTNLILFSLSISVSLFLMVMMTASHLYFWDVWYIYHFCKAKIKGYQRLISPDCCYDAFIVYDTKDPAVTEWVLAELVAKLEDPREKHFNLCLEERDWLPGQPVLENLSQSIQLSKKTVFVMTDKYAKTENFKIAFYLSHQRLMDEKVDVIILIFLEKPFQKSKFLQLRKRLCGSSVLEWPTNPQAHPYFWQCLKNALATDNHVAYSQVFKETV
Test: HEK-Blue hTLR7 SEAP reporter assay
Assay type: cell-based
Outcome measure: Average maximal activity in HEK-Blue hTLR7 relative to RSQ (%)

# example entries with known answers
{"columns": ["Compound", "Target or system", "Reported result"],
 "data": [
  ["CCCCc1nc2c(N)nc3ccccc3c2n1CCC1CCNCC1 [A1]", "human TLR7 (Homo sapiens)", 58],
  ["CCCCc1nc2c(N)nc3ccccc3c2n1CC1CCN(C(=O)CN(C)CC(=O)N(C)[C@H]2C[C@@H](C)O[C@@H](O[C@@H]3[C@@H](C)[C@H](O[C@H]4C[C@@](C)(OC)[C@@H](O)[C@H](C)O4)[C@@H](C)C(=O)O[C@H](CC)[C@@](C)(O)[C@H](O)[C@@H](C)N(C)C[C@H](C)C[C@@]3(C)O)[C@@H]2O)CC1 [A2-mac]", "human TLR7 (Homo sapiens)", 63],
  ["CCCCc1nc2c(N)nc3ccccc3c2n1CCC1CCN(C(=O)CN(C)CC(=O)N(C)C2CC(C)OC(OC3C(C)C(OC4CC(C)(OC)C(O)C(C)O4)C(C)C(=O)OC(CC)C(C)(O)C(O)C(C)N(C)CC(C)CC3(C)O)C2O)CC1 (stereo not drawn) [A1-mac]", "human TLR7 (Homo sapiens)", 41],
  ["CCCCc1nc2c(N)nc3ccccc3c2n1CC1CCNCC1 [A2]", "human TLR7 (Homo sapiens)", 81]
]}

(a) CCCCc1nc2c(N)nc3ccccc3c2n1CC1CCN(C(=O)OC(C)(C)C)CC1 [A2-boc]
(b) CCCCc1nc2c(N)nc3ccccc3c2n1CCC1CCN(C(=O)OC(C)(C)C)CC1 [A1-boc]
-- ask Rank a against b by their Average maximal activity in HEK-Blue hTLR7 relative to RSQ values and give the higher one. When you have decided, please share the label of that item.
-- reply a
